# System: HCT-116
# assay_remarks: NCI tumour cell line growth inhibition, 48 h
Activity calls are given as the source filed them. No stated cut-off is given here; in the data, active = GI50 up to about 1.1 µM and inactive = higher.
Answer with one of the outcomes active, inactive

The examples below pair each entry with its known result.
- compound: "CCCCCc1c(CCCC)c(O)nc2nc(NC(=O)CCCC)ccc12"
  label: "inactive"
- compound: "NS(=O)(=O)c1ccc(NC(=O)Nc2cccc3ccccc23)cc1"
  label: "inactive"
- compound: "CC1=NN(c2ccccc2)C(=O)C1/N=N/c1ccc(Br)c(C)c1 (stereo not drawn)"
  label: "inactive"
- compound: "CCOC(=O)C(=Cc1ccccc1Br)C(=O)OCC"
  label: "inactive"
- compound: "COc1ccc(NC(=S)N/N=C2\\C(=O)Nc3ccccc32)cc1"
  label: "inactive"

## Task Field: outcome | Entry: O/N=N/c1ccc([SH2]c2ccc3ccccc3c2)cn1
## Result inactive

## Task Field: outcome | Entry: O=C(c1cccs1)N1CCN(C(=O)c2cccs2)C1=S
## Result inactive

## Task Field: outcome | Entry: COc1ccc(-c2onc(-c3ccc([N+](=O)[O-])cc3)c2C2=NCCCN2)cc1
## Result inactive

## Task Field: outcome | Entry: O=C1C(=O)C(CCCO)(CCCO)CCCCCCCCC1(CCCO)CCCO
## Result inactive

## Task Field: outcome | Entry: CCN(CC)CC1CCCCN1CC(=O)N1c2ccccc2C(=O)Nc2cccnc21 (stereo not drawn)
## Result inactive

## Task Field: outcome | Entry: COc1ccc(-n2nnc3c(C#N)c(C)c(-c4ccccc4)n3c2=O)cc1
## Result active

## Task Field: outcome | Entry: O=C(NCCCN1CCN(CCCNC(=O)Nc2cc(Cl)ccc2Cl)CC1)Nc1cc(Cl)ccc1Cl
## Result inactive

## Task Field: outcome | Entry: CCC(=O)NCCc1c2c3c(ccnc3c3ncsc13)-c1ccccc1N2
## Result active

## Task Field: outcome | Entry: N#CC(NC12CC3CC(CC(C3)C1)C2)c1ccc2c(c1)OCO2 (stereo not drawn)
## Result inactive

## Task Field: outcome | Entry: Nc1ccn(C2OC(CO)C(O)C2O)c(=O)n1 (stereo not drawn)
## Result active

## Task Field: outcome | Entry: CCCC1C(=O)CCc2c(OC)ccc(OC)c21 (stereo not drawn)
## Result inactive

## Task Field: outcome | Entry: CO/N=C\c1cc(O)c(O)c(/C=N/OC)c1
## Result inactive

## Task Field: outcome | Entry: NC(Cc1ncccn1)C(=O)O (stereo not drawn)
## Result inactive

## Task Field: outcome | Entry: CCOC(=O)/C(C(=O)c1ccc[nH]1)=C1/CCCN1C
## Result inactive

* * *

# System: CCRF-CEM
# assay_remarks: NCI tumour cell line growth inhibition, 48 h
Activity calls are given as the source filed them. Rule as the data show it: active = GI50 up to about 1.1 µM and inactive = higher.
Answer with one of the outcomes 1.0 (active), 0.0 (inactive)

- molecule: "O=C(NC(=S)NC(=O)c1cc(O)c(O)c(O)c1)c1cc(O)c(O)c(O)c1"
  label: 0.0
- molecule: "C1=Nc2ccccc2Cn2nncc21"
  label: 0.0
- molecule: "Oc1cc(-c2cccc(OC(F)(F)F)c2)nc2cc3c(cc12)OCO3"
  label: 1.0

## Task Field: outcome | Entry: C=C1C(=O)O[C@H]2C3C(=C(C)CC[C@@H]12)C(=O)[C@@H]1OC31C (stereo not given in full)
## Result 1.0

## Task Field: outcome | Entry: COC(=O)C1=CC(=O)C(C(=O)Nc2ccc(OC)cc2)C(c2ccccc2)O1 (stereo not given)
## Result 0.0

## Task Field: outcome | Entry: COc1ccc(-n2nnc3c(C#N)c(C)c(-c4ccccc4)n3c2=O)cc1
## Result 1.0

## Task Field: outcome | Entry: N#C/C(=C\c1ccc(CP(=O)(O)O)cc1)C(N)=O
## Result 0.0

## Task Field: outcome | Entry: CC1(C)[C@H]2CC[C@@]13C(=O)N1C(=O)O[C@@H]([C@H]1Cl)C(Cl)(COCc1ccccc1)C(=O)OCCO[C@H]3C2 (stereo not given in full)
## Result 0.0

## Task Field: outcome | Entry: CCOC(=O)c1ccc(/N=N\c2ccc(N(CCC#N)CCC#N)cc2C)cc1
## Result 0.0

## Task Field: outcome | Entry: COc1cc(O)c2c(=O)c3cccc(C)c3[nH]c2c1
## Result 0.0
